Attribution: patent US20200102347A1

- tgt: T1, NativeRPtag(large)_with_Tags_and_Cys (Thermoanaerobacter tengcongensis)
- T1 construct: Unlabeled in anisotropy assays; coupled through the engineered N-terminal Cys to SulfoLink agarose or maleimide plates in column, pull-down and ELISA assays
- T1 chain: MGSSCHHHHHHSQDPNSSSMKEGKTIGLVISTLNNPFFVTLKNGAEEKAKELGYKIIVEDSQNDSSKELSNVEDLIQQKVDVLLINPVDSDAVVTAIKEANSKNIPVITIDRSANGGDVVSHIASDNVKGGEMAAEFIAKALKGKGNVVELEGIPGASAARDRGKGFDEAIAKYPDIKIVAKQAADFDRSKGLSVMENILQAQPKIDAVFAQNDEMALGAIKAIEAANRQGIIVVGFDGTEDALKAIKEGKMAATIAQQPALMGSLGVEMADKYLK
- assayProtocol: fluorescence anisotropy, association kinetics
No end group written: not given here. *: point of attachment. RhodamineB = CCN(CC)c1ccc2c(-c3ccccc3C(=O)*)c3ccc(=[N+](CC)CC)cc-3oc2c1
Form field: kf (S to S*) (one value per entry).
A number alone suffices; assume min⁻¹.

RhodamineB-GEKIPNFIPAELKLITKE [RPtag(small) Cd3]: 0.014
RhodamineB-KIPNFIPAELKLITKA [RPtag(small) Nd2, Cd3, e18a]: 0.084
RhodamineB-GEKIPNFIPAEAKLITKENVQ [RPtag(small) l12a]: 0.089

Task item: Field request: kf (S to S*) | item: RhodamineB-GAKIPNFIPAELKLITKENVQ [RPtag(small) e2a]
Reply: 0.084

Task item: So what's the measured kf (S to S*) for this one? RhodamineB-EKIPNFIPAELKLITKENVQ [RPtag(small) Nd1]
Reply: 0.064

Task item: What value of kf (S to S*) has been recorded for this entry: RhodamineB-KIANFIPAELKLITKE [RPtag(small) Nd2, Cd3, p5a]
Reply: 0.093

Task item: Would you mind telling me what kf (S to S*) value was observed for RhodamineB-GEKIPNFIPAELKLATKENVQ [RPtag(small) i15a] ?
Reply: 0.077

Task item: Need kf (S to S*) of RhodamineB-KIPNFIPAELKLITKENVQ [RPtag(small) Nd2] , thanks.
Reply: 0.063

Task item: Please give the measured kf (S to S*) for this binder: RhodamineB-KIANFIPAELKLITK [RPtag(small) Nd2, Cd4, p5a]
Reply: 0.11

Task item: # kf (S to S*) lookup, item RhodamineB-GEKIPAFIPAELKLITKENVQ [RPtag(small) n6a]
Reply: 0.082

Task item: Endpoint output: kf (S to S*) of RhodamineB-ELKLITKE [RPtag(small) Nd10, Cd3] . Value?
Reply: 0.32

Task item: Which kf (S to S*) is reported for this binder? RhodamineB-GEKIPNFAPAELKLITKENVQ [RPtag(small) i8a]
Reply: 0.078

Task item: Data request, read-out kf (S to S*), for RhodamineB-KIPNFIPAELKLITKANVQ [RPtag(small) Nd2, e18a]
Reply: 0.044

Task item: What value of kf (S to S*) has been reported for the following binder? RhodamineB-KIPNFIPAELKLITKANAA [RPtag(small) Nd2, e18a, v20a, q21a]
Reply: 0.045

Task item: Which kf (S to S*) is reported for this binder? RhodamineB-KIPNFIPAELKLITK [RPtag(small) Nd2, Cd4]
Reply: 0.093

Task item: Fill blank: measured kf (S to S*) of the binder RhodamineB-GEKIPNFIPAELKLITKENV [RPtag(small) Cd1] is ____.
Reply: 0.1

Task item: Look up kf (S to S*) for this binder: RhodamineB-GEKIPNAIPAELKLITKENVQ [RPtag(small) f7a]
Reply: 0.08

Task item: Field request: kf (S to S*) | item: RhodamineB-PAELKLITKE [RPtag(small) Nd8, Cd3]
Reply: 0.095

Task item: Please report the recorded kf (S to S*) for RhodamineB-GEKIPNFIAAELKLITKENVQ [RPtag(small) p9a] .
Reply: 0.092

Task item: Returns the measured kf (S to S*) for the input binder. Input: RhodamineB-KIANFIPAELKLITKA [RPtag(small) Nd2, Cd3, p5a, e18a]
Reply: 0.086

Task item: Tell me the measured kf (S to S*) of RhodamineB-GEKIPNFIPAELKLITKENVA (built here from the native peptide with the stated change) [RPtag(small) q21a] , please.
Reply: 0.087
